- TARGET_SYSTEM: Muscarinic acetylcholine receptor M4 (Homo sapiens) (UniProt P08173)
- Sequence (P08173 whole entry, looked up): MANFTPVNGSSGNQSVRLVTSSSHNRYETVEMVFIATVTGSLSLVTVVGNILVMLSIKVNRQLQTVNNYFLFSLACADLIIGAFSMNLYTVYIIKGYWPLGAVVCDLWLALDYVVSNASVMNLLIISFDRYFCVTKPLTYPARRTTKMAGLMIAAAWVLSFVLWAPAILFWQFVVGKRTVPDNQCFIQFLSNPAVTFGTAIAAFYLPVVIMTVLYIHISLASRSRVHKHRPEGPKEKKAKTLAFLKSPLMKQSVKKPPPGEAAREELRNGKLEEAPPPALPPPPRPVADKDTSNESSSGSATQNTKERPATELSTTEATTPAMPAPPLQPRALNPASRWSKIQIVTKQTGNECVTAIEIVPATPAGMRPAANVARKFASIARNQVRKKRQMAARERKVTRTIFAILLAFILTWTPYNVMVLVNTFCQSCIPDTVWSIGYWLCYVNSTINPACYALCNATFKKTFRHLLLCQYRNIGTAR
- PROTOCOL: M4-linked GIRK flux change, two-sided – cell-based, HEK293 M4/GIRK, thallium flux, BTC-AM, M4 allosteric agonist project, primary screen (AID 625);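 further: thallium influx through GIRK channels coupled to M4 in HEK293 cells with BTC-AM dye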
- REPORTED_CONDITIONS: at 10 µM, actives lie on both sides
Activity calls are given as the source filed them.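 How the source made its calls: active means fluorescence slope after compound addition differing from the mean of all tested samples at 99.7% confidence, mostly higher but some lower; inactive means the rest.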
MEASURED_METRIC: fluorescence slope

| COMPOUND | OBS_VALUE |
| --- | --- |
| COc1cccc(N2CCN(Cc3nc(N)nc(Nc4ccccc4OC)n3)CC2)c1 | 0.00593 (inactive) |
| O=C(NCC1COCCO1)C1CCN(S(=O)(=O)c2ccccc2)CC1 (stereo not drawn) | 0.0061 (inactive) |
| CCC(=O)N1CCc2cc(S(=O)(=O)CCC(=O)Nc3nc(C)cs3)ccc21 | 0.00524 (inactive) |
| O=C(c1ccco1)N1CCN(C(=O)C2CCN(S(=O)(=O)c3cccc4nsnc34)CC2)CC1 | 0.00637 (inactive) |
| CCn1c(=S)sc2nc(C)sc21 | 0.00458 (inactive) |
| O=C(Cc1ccsc1-c1ccccc1)NO | 0.00508 (inactive) |
| O=C(CSc1ncnc2sc3c(c12)CCCCC3)NCc1ccco1 | 0.0063 (inactive) |
| CCOCCCNC(=O)c1ccc2c(c1)ncn2C1CCCC1 | 0.00159 (inactive) |
| Cc1cc(NC(=O)CSc2nnc(C3CC3)n2C)no1 | 0.00523 (inactive) |
| O=C(Nc1nncs1)c1ccccc1NS(=O)(=O)c1cccs1 | 0.00575 (inactive) |
| Cc1sc2nc(SCC(=O)NCc3ccco3)n(CCc3ccccc3)c(=O)c2c1C | 0.0086 (inactive) |
| COC(=O)c1onc(C(=O)c2ccccc2)c1C(=O)OC | 0.00647 (inactive) |
| CC(C)c1nc2sc3c(c2c(=O)o1)CCCC3 | 0.00562 (inactive) |
| CCn1c(COc2cccc3ccccc23)nnc1SCC(N)=O | 0.00477 (inactive) |
| Cc1ccc(Cn2nnc3c(=O)n(CC(=O)NCC4CCCO4)cnc32)cc1 (stereo not drawn) | 0.00672 (inactive) |
| Cn1c(SCC(N)=O)nnc1C1CCN(S(=O)(=O)c2ccccc2C(F)(F)F)CC1 | 0.00588 (inactive) |
| CCOc1ccc(-n2cc(C(=O)Nc3cccc(C)n3)c3cc(OC)c(OC)cc3c2=O)cc1 | 0.0107 (inactive) |
| O=C(NC1CCc2ccccc21)C1CCN(S(=O)(=O)c2ccc(-n3cnnn3)cc2)CC1 (stereo not drawn) | 0.00483 (inactive) |
| COc1cccc(C(=O)OCCN(C)C(C)(C)C)c1 | 0.00557 (inactive) |
| CCOc1cc(C2c3c(n[nH]c3C)C(=O)N2c2ccc(Br)cc2)ccc1O (stereo not drawn) | 0.00604 (inactive) |
| COCCN1C(=O)C(=O)/C(=C(/O)c2ccc(OC(C)C)cc2)C1c1cccnc1 (stereo not drawn) | 0.00536 (inactive) |
| COc1ccc(Cn2nnnc2C(c2ccncc2)N2CCOCC2)cc1 (stereo not drawn) | 0.00759 (inactive) |
| CN(C)/C=C1\N=C(c2cccs2)OC1=O | 0.00407 (inactive) |
| CCCn1c(NCc2cc(C)ccc2O)nc2ccccc21 | 0.00499 (inactive) |
| Cc1ccc(NC(=O)C2CCCN2C(=O)Oc2ccccc2)cc1 (stereo not drawn) | 0.00654 (inactive) |
| O=c1cc(-c2ccco2)oc2ccc(Cl)cc12 | 0.00691 (inactive) |
| COc1cc(C(=O)Nc2cc(Cl)ccc2C)c(-n2cnnn2)cc1OC | 0.00699 (inactive) |
| CCn1nnnc1NCc1cccn1C | 0.00612 (inactive) |
| COc1ccc(OC)c(NC(=O)Cc2coc3ccc(C)cc23)c1 | 0.0049 (inactive) |
| CCOCCCNCC(=O)N1CCN(S(=O)(=O)c2ccc(C)cc2)CC1 | 0.00526 (inactive) |
| C=C(Br)CN1CCN(CC(=C)Br)CC1 | 0.00828 (inactive) |
| CCOC(=O)C1=C(CC)Nc2ccccc2N=C1NC(=O)Nc1ccccc1OC | 0.00703 (inactive) |
| O=C1CSC(c2cccc(F)c2)N1c1ccccc1F (stereo not drawn) | 0.00376 (inactive) |

###

# cell count per record follows
- PROTOCOL: inhibitors of TNFa-induced NFkB p65 translocation, primary screen, imaging, HUVEC, MLSMR starter and 10KST1 sets (AID 438);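 further: compound added about 3h40 before a 20 min TNFalpha stimulation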
- REPORTED_CONDITIONS: HUVEC TNFa-induced p65 nuclear translocation; measured here: nuclei count (cytotoxicity indicator), at 2.08 µM

| MOLECULE | cell count |
| --- | --- |
| O=C(CN1C(=O)c2ccccc2C1=O)NCC1COc2ccccc2O1 (stereo unspecified) | 403 |
| Cc1c(/C(O)=C2/C(=O)C(=O)N(CCN3CCOCC3)C2c2cccs2)cnn1-c1ccccc1 (stereo unspecified) | 566 |
| CCOCCCNC(=O)c1ccc2c(c1)ncn2C1CCCC1 | 573 |
| CSc1nnc(-c2cnccn2)n1C | 679 |
| CCOCCCNCC(=O)N1CCN(S(=O)(=O)c2ccc(C)cc2)CC1 | 642 |
| COc1ccccc1OC(=O)c1ccc(SC)cc1OC | 384 |

###

# inhibition per record follows
- PROTOCOL: endothelial E-selectin expression blockers – imaging, HUVEC, immunofluorescence, MLSMR starter and 10KST1 sets, primary screen (AID 487);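 further: signal is fraction of cell area covered by stained E-selectin grains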
- REPORTED_CONDITIONS: HUVEC TNFalpha-induced E-selectin immunofluorescence imaging, at 2 µM; stronger effect = higher value
Active and inactive are the calls of the source.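 How the source made its calls: active means visually confirmed hit in the image check and inhibition above 20%; inconclusive means visually confirmed hit but inhibition not above 20%; inactive means no visual hit in the image check.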

| COMPOUND | inhibition |
| --- | --- |
| COC(=O)c1nn(-c2ccc(-c3ccccc3)cc2)cc1O | 9.1% (inactive) |
| N#Cc1cc2sc3nnc(-c4ccncc4)n3c2cc1C#N | 22.9% (inactive) |
| COc1cccc(-c2cc(C(=O)Nc3cc(OC)c(OC)c(OC)c3)no2)c1 | -12.3% (inactive) |
| O=C(CCN1CCCC1Cc1ccccc1)c1ccc2c(c1)OCCO2 (stereo not given) | -106% (inactive) |
| Cc1cc2c(c(=O)n1CCN(C)C)C(c1ccncc1)C(C#N)=C(N)O2 (stereo not given) | -74% (inactive) |
| COc1ccc(N2CCN(C(=O)CSc3nnc(Cn4nnc5ccccc54)n3C)CC2)cc1 | -48.7% (inactive) |
| Cc1ccc(S(=O)(=O)c2nc(-c3ccco3)oc2SCC(=O)NCC2CCCO2)cc1 (stereo not given) | -16.1% (inactive) |
| CCOc1ccc(NC(=O)CN2CCN(CC(=O)Nc3ccc(F)c(F)c3)CC2)cc1 | -60.2% (inactive) |
| CCCn1c(NC(=O)C2COc3ccccc3O2)nc2ccccc21 (stereo not given) | -56% (inactive) |
| CC(C)C1N=C2c3ccccc3N=C(SCC(=O)NCCc3ccc(S(N)(=O)=O)cc3)N2C1=O (stereo not given) | -121% (inactive) |

###

# cell count per record follows
- PROTOCOL: inhibitors of TNFa-induced NFkB p65 translocation, primary screen, imaging, HUVEC, MLSMR starter and 10KST1 sets (AID 438);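 further: compound added about 3h40 before a 20 min TNFalpha stimulation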
- REPORTED_CONDITIONS: HUVEC TNFa-induced p65 nuclear translocation; measured here: nuclei count (cytotoxicity indicator), at 2.08 µM

| COMPOUND_STRUCTURE_STRING | cell count |
| --- | --- |
| CCc1cc(-c2[nH]ncc2-c2ccc3c(c2)OCO3)c(O)cc1O | 511 |
| Cc1cc(O)c(NC(=O)c2ccc(Br)o2)cc1C | 394 |
| Cc1ccc(-n2c(=O)c3sccc3n(CC(=O)NCc3ccco3)c2=O)cc1 | 488 |
| Cc1ccc2nsnc2c1S(=O)(=O)N1CCN(Cc2ccc3c(c2)OCO3)CC1 | 486 |
| CC(C)(C)N(Cc1cc2ccccc2[nH]c1=O)C(=O)C1CCCCC1 | 510 |
| c1coc(-c2nnc(-c3cccs3)o2)c1 | 497 |

###

- PROTOCOL: Primary imaging screen for DUSP6 inhibitors that restore phospho-Erk in transfected HeLa cells, chemical complementation (AID 609)
- REPORTED_CONDITIONS: HeLa MKP-3 transfected, phospho-Erk imaging KS statistic; measured here: cell density z-score; at 10 µM; cells stimulated with TPA for 15 min
Everything with z-score lower than -0.3 is FALSE; everything else, including exactly -0.3, is TRUE.

| COMPOUND | CLASSIFICATION |
| --- | --- |
| CN(C)CCCN1c2ccccc2Sc2ccccc21 | TRUE |
| COc1cc2nc(N3CCN(C(=O)C4CCCO4)CC3)nc(N)c2cc1OC (stereo unspecified) | TRUE |
| NS(=O)(=O)c1cc2c(cc1Cl)NCNS2(=O)=O | FALSE |
| Oc1c(Cl)cc(Cl)cc1Sc1cc(Cl)cc(Cl)c1O | FALSE |
| CN(CCOC(=O)c1cccc(Br)c1)C(C)(C)C | FALSE |
| CC(=O)[C@H]1CC[C@H]2[C@@H]3CCC4=CC(=O)CC[C@]4(C)[C@H]3CC[C@]12C | FALSE |
| CCCCCOc1ccc(Cl)cc1CN1CCOCC1 | TRUE |
| O=C1CCc2cc(OCCCCc3nnnn3C3CCCCC3)ccc2N1 | TRUE |
| O=C(NC1CCCCC1)[C@H](O)[C@@H](O)C(=O)NC1CCCCC1 | FALSE |
| CCn1cc(C(=O)O)c(=O)c2cnc(N3CCNCC3)nc21 | TRUE |
| O=C(CCN1CCCC1Cc1ccccc1)c1ccc2c(c1)OCCO2 (stereo unspecified) | FALSE |
